# Procedure text: Selectivity index, ratio of EC50 for mouse J774 cells to EC50 for bloodstream forms of Trypanosoma brucei brucei 427 stably transfected with pHD449 plasmid
# Assay type: toxicity, cell-based
# Condition description: read-out: Ratio EC50
The entries below come with measured selectivity ratio values attached.
Please reply with the number alone, leaving off any unit.

Could you tell me which selectivity ratio is on file for "O=C(CN1C(=O)Cc2c([nH]c3ccc(Br)cc23)-c2ccc(Cl)cc21)NCc1ccc(Cl)c(Cl)c1" ?
12

// query selectivity ratio value for entry "O=C(CN1C(=O)Cc2c([nH]c3ccc(Br)cc23)-c2ccc(Cl)cc21)NCc1ccc(O)cc1"
238

GET /values?readout=selectivity ratio&item= "CNCCNC(=O)CN1C(=O)Cc2c([nH]c3ccc(C(F)(F)F)cc23)-c2ccccc21"
1
